Origin of values: patent US7179886B1

// reported Aequorin Assay (EC50 nM) for each item listed
Target: motilin receptor spliced form A (MTL-R1A), human (human, UniProt O43193 1-412)
Sequence (O43193 whole entry, canonical isoform): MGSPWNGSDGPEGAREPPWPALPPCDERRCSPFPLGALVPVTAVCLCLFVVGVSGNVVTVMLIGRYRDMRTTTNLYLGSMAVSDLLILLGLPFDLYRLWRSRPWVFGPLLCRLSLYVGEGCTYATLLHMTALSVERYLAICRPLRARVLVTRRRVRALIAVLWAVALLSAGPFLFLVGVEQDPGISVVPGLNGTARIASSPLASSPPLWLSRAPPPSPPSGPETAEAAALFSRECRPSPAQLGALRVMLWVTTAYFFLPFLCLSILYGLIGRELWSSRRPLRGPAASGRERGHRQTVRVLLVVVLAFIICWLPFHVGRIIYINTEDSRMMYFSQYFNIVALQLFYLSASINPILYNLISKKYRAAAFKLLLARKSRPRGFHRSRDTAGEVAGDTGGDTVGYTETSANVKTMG
Assay: cell-based or functional assay
Field: numeric (nM). Do not append units.

Some binders with known Aequorin Assay (EC50 nM) results, for comparison:
IN: Entry FVPIFTYGELQRM (peptide, UniProt P12872 26-38, looked up, range 1-13; The range counts on mature motilin, not on the precursor entry) [1-13 MTL] : reported Aequorin Assay (EC50 nM) = ?
OUT: 3.8

IN: Fill blank: measured Aequorin Assay (EC50 nM) of the binder FVPIFTYGELQRMQEKERN (peptide, UniProt P12872 26-44, looked up, range 1-19; The range counts on mature motilin, not on the precursor entry) [1-19 MTL] is ____.
OUT: 4.1

Now for a further binder.
IN: Given the entry FVPIFTYGELQRLQEKERNKGQ (peptide, UniProt P12872 26-47, looked up, mature; Position 13 counts on the mature peptide, not on the precursor) [Leu13 MTL] , report its measured Aequorin Assay (EC50 nM).
OUT: 3.9
